tested on: Rat Peripheral Blood Lymphocyte Count; assay: Measurement of rat peripheral blood lymphocyte count (relative count and ID50) after oral administration; assay type: in vivo; conditions: LEW rats, blood collected 3 hours after administration, dose not given
Observation type: Lymphocyte Count (Relative Value Based on a value of 100% for Normal Control Group) (%)
Answers are plain numbers, in %.

Please review the entries below; each comes with its answer.
Molecule	Numeric readout
COc1ccc(CCCC(=O)c2ccc(CC[C@@](C)(N)CO)n2C)cc1C.Cl	11
Cn1c(CC[C@@](C)(N)CO)ccc1C(=O)CCCc1ccccc1 [Comparative Compound 2, reference compound]	31
CC(N)(CO)CCc1ccc(C(=O)CCCCc2ccccc2)s1 (stereo not shown) [Comparative Compound 1, reference compound]	30

Now turn to the next molecule.
Prompt: Checklist item: Lymphocyte Count (Relative Value Based on a value of 100% for Normal Control Group) (%) tested on Rat Peripheral Blood Lymphocyte Count, entry `Cc1ccc(CCCC(=O)c2ccc(CC[C@@](C)(N)CO)n2C)cc1.Cl` , value?
Completion: 8

Source of measurements: patent US7910617B2
